All figures here come from the supplement of paper PMC11451515.

So I've got a bunch of molecules here, and I need their cell viability values.
System: SEM cells
assay-details: cell viability relative to DMSO control; higher = less cytotoxic
experimental-setup: RPMI 5 mM glucose + 10% FBS; 48 h; 0.569 µM
Phrase the answer as number then unit, nothing more needed.

Task: So what does the record say about cell viability for CC/1=C/C(=O)N(O)/C(=C1)C2CCCCC2 ?
Result: 140%

Task: So what does the record say about cell viability for COC1CCC(CC1)N(C(=O)C2CCC(C)CC2)C3=C(SC(=C3)\C4=C\CCCC4)C(O)=O (stereo not given) ?
Result: 122%

Task: So what does the record say about cell viability for CCC(C)SSc1ncc[nH]1 (stereo not given) ?
Result: 93.8%

Task: So what does the record say about cell viability for CC/C(=C(/c1ccc(O)cc1)c1ccc(OCCNC)cc1)c1ccccc1 ?
Result: 102%

Task: So what does the record say about cell viability for C[C@]12CC[C@@H]3c4ccc(OC(=O)N(CCCl)CCCl)cc4CC[C@H]3[C@@H]1CC[C@@H]2OP(=O)([O-])[O-].[Na+].[Na+] ?
Result: 87.9%
